test: Oral bioavailability at Sprague-Dawley rat at 10 mg/kg; format: ADME, organism-based; settings: in vivo
reported.property: bioavailability (%)
Write it as a number; the unit % goes unstated.

Please review the entries below; each comes with its answer.
O=C(CC(c1ccccc1)c1ccccc1)N1CCN(C(c2ccccc2)c2cccc(Cl)c2)CC1 (stereo not drawn)    66
O=C(CC(c1ccccc1)c1ccccc1)N1CCN(C(c2ccccc2)c2cccc(C(F)(F)F)c2)CC1 (stereo not drawn)    65

# ---- query compound ----
Lookup: So what does the record say about bioavailability for "O=C(NC(c1ccccc1)c1ccccc1)N1CCN(C(c2ccccc2)c2ccccc2)CC1" ?
Found: 22

* * *

Reported Activity values follow for various compounds
tested on: Rattus norvegicus; experiment: Analgesic activity in Sprague-Dawley rat assessed as inhibition of spinal nerve injury-induced thermal hyperalgesia at 30 mg/kg, po after 60-90 mins; assay type: functional; parameters: scale not given: the % may be the effect or the level left
Write it as a number; the unit % goes unstated.

Please review the entries below; each comes with its answer.
O=C(CC(c1ccccc1)c1ccccc1)N1CCN([C@H](c2ccccc2)c2ccc(Cl)cc2)CC1    67.6
O=C(NC(c1ccccc1)c1ccccc1)N1CCN(C(c2ccccc2)c2ccccc2)CC1    97.9
CN1CCC(C(c2ccc(F)cc2)N2CCN(C(=O)CC(c3ccccc3)c3ccccc3)CC2)CC1 (stereo not given)    14.9
O=C(CC(c1ccccc1)c1ccccc1)N1CCN(C(c2ccccc2)c2cccc(Cl)c2)CC1 (stereo not given)    95.1

# ---- query compound ----
Lookup: So what does the record say about Activity for O=C(CC(c1ccccc1)c1ccccc1)N1CCN(C(c2ccccc2)c2ccccc2Cl)CC1 (stereo not given) ?
Found: 89.5
